Source: the DeepSol protein solubility set

Assay comment: soluble on expression in E. coli; label from the status in PepcDB or PDB records
Measured property: soluble on expression in E. coli

Below, each entry is followed by its recorded soluble on expression in E. coli result.
Sequence record	soluble on expression in E. coli
TKAVHTKHAPAAIGPYSQGIIVNNMFYSSGQIPLTPSGEMVNGDIKEQTHQVFSNLKAVLEEAGASFETVVKATVFIADMEQFAEVNEVYGQYFDTHKPARSCVEVARLPKDALVEIEVIALVK	soluble
MSLRNEVQFELFGDYALFTDPLTKIGGEKLSYSVPTYQALKGIAESIYWKPTIVFVIDELRVMKPIQMESKGVRPIEYGGGNTLAHYTYLKDVHYQVKAHFEFNLHRPDLAFDRNEGKHYSILQRSLKAGGRRDIFLGARECQGYVAPCEFGSGDGFYDGQGKYHLGTMVHGFNYPDETGQHQLDVRLWSAVMENGYIQFPRPEDCPIVRPVKEMEPKIFNPDNVQSAEQLLHDLGGEEGHHHHHH	soluble
GHMPTKQQLLYEGKAKKIYATDEPDVLWVEYKDSATAFNGEKKATIAGKGRLNNEISSLLFLKLREAGIANHFIEKLSPTEQLVRRVTIIPLEVVVRNVVAGSLAKRIGLEEGTPLEAPLVEFYYKNDDLGDPLLLEDHIFILKLASREEVAALKQAALAVNDVLRLHFAERNVRLIDFKLEFGRTADGAILLADEISPDTCRLWDAKTNEKLDKDVFRRDLGSLTDAYEVILQRLGGESACTK	soluble
MRNIQPRRLVTASGQPIVIRTAWPEDAERIVAFVKAVTAEALYLLTTEAEVTVTEDQQRQWLQKMADDPGKLALLAEHDGEMIGFLDFHNGNKRFRHEREKRLSRPGDRHGVACSAP	not soluble
GAMDTMESIVLNTIVTGLQEPKKEFIARVIKTIGSQRSLQLYENAMKVENSGGLLTADMSRRKTIGGVFCYLLKQLVAEDQITIQEWNYIRQEEKERINAKNILKRNNRRCQV	soluble
MEFKNPGFTGLFVIGRKYFMTAENTEMTLHPKKLPPNAGKGRVKGVPNKTTSLLKESVIEAAKRAGSKYGKEGLISYLEKQALKCPAAYLALLGKVLPLQVTGEDGGAIKMIGRVEIAPLGHDNTTD	not soluble
MGSDKIHHHHHHMSTEHQLLVGLLKKLKDDALVLPTLPEVAMRVQEVVSRQDSSLKQVADIIGQDAAISARIIKVANSALYSRGNKAESINAAVSRIGLVQIKSITTSVAMEQLFISTNEMVWEVMDEVWKTSIEVTASSCAMLEMYNKRHPTKKLDRDTLTLAGLVHNIGALPVLTEAEVHPELFGRIDDLRSLVRKMQGPIGRAVLKTWDFAPEVMEVVERWADLHYLPEKVTYLDFIRSAAFYTGELRAGEELEERLGVFAQRGLPVTPEDLASDEFINMYHSIMQSYE	not soluble

Value of soluble on expression in E. coli reported for the sequence `MDAFSGIAGPLGRASELHRYEGNQTVVFCAGGVGLPPVYPIMREHLRLGNHVTLISGFRAKEFLFWTGDDERVGKLKKEFGDQLSLIYTTNDGSYGVKGFVTGPLEEMMKANQEGKGRSIAEVIAIGPPLMMRAVSDLTKPYGVKTVASLNSLEHHHHHH` is soluble
